- Test system: SW480 cells (G12V)
- EXPERIMENT_NOTES: Cell viability assay (CellTiter-Glo), SW480 cells
- Type: cell-based
- RUN_CONDITIONS: Homo sapiens, SW480, 72 h, read-out: Inhibition of Cancerous Cells IC50 SW480 (G12V)
- Method: H358, H23, SW48, and AsPC-1 cells were cultured in RPMI 1640 media supplemented with 10% fetal bovine serum, streptomycin, and penicillin. Lovo and SW480 cells were cultured in DMEM media supplemented with 10% fetal bovine serum, streptomycin, and penicillin. The cell lines were plated in their respective medium supplemented with 2.5% fetal bovine serum, streptomycin, and penicillin. […] After a 10 min incubation with shaking, luminescence was measured using an ENVISION® multimode plate reader.
PROPERTY_LABEL: pIC50
The quantity pIC50 is defined as the negative base-10 logarithm of the molar concentration.

Bench note: what pIC50 did COc1cc2c(N[C@H](C)c3cccc(Br)c3)nc(C)nc2cc1OCCCCCCCN1CCC(c2cc(F)cc3c2CN(C2CCC(=O)NC2=O)C3=O)CC1 (stereo partly shown) [Compound A1] show?
6.24
